System: α7 integrin (LacZ reporter in α7+/LacZ myotubes)
protocol: Myotube α7 integrin FDG assay (Burkin assay in myotubes, 96-well)
Format: cell-based, mouse
settings: Mus musculus, Myotube; 1 uM, myotubes; read-out: Burkin Assay in Myotubes (signal relative to DMSO)
parameter: fold induction at 1 µM
// response body must contain only the number

>  <molecule>
COCCn1c(=N)c(S(=O)(=O)c2ccc(Br)cc2)cc2c(=O)n3ccccc3nc21

>  <parameter>
fold induction at 1 µM

>  <measured result>
0.854

$$$$
>  <molecule>
CCc1ccc(N(C(=O)c2snc(C(N)=O)c2N)C(C(=O)NC2CCCC2)c2ccco2)cc1 (centres unmarked)

>  <parameter>
fold induction at 1 µM

>  <measured result>
1.17

$$$$
>  <molecule>
COc1ccccc1NC(=O)CCCc1c[nH]c2ccccc12

>  <parameter>
fold induction at 1 µM

>  <measured result>
0.88

$$$$
>  <molecule>
Cc1c(C(=O)N2CCCCC2)c(S(=O)(=O)Nc2cccc(Br)c2)c(C)n1C

>  <parameter>
fold induction at 1 µM

>  <measured result>
1.09

$$$$
>  <molecule>
CCS(=O)(=O)N1CCN(c2ccc([N+](=O)[O-])c(NCC3CCCO3)c2)CC1 (centres unmarked)

>  <parameter>
fold induction at 1 µM

>  <measured result>
1.13

$$$$
>  <molecule>
COc1ccc(NC(=O)c2ccc3nc(C)sc3c2)cc1

>  <parameter>
fold induction at 1 µM

>  <measured result>
0.987

$$$$
>  <molecule>
CCOc1ccc(NC(=O)CN2C(=O)NC(CCSC)C2=O)cc1 (centres unmarked)

>  <parameter>
fold induction at 1 µM

>  <measured result>
1.28

$$$$

Field request: fold induction at 1 µM | item: "CC1(C)Cc2c(ccc3ccccc23)C(=O)N1" 1.04

====

System: α7 integrin (LacZ reporter in α7LacZ+/− myoblasts)
protocol: qHTS of the LOPAC library and MLSMR (online screen, α7LacZ+/− myoblasts)
settings: Mus musculus, Myoblast, 48 h, read-out: Fit Infinite Activity [%]
Friendly reminder: Emax below 80% is true (1), at or above is false (0).

Some entries whose results are on file:
>  <molecule>
CCCCC(C(=O)NC1CCCC1)N(C(=O)c1snc(C(N)=O)c1N)c1ccc(C)cc1 (stereo not shown)

>  <assigned class>
true (1)

$$$$
>  <molecule>
CCCC(=O)Nc1ccccc1NC(=O)c1ccc(OCC)cc1

>  <assigned class>
false (0)

$$$$
>  <molecule>
CC(=O)c1cccc(NC(=O)C(=O)Nc2cccc3ccccc23)c1

>  <assigned class>
false (0)

$$$$
>  <molecule>
COc1ccc(C(=O)CN2CCCCC2)cc1

>  <assigned class>
false (0)

$$$$
>  <molecule>
Cc1nnc(NC(=O)CSc2nnc(CCNC(=O)c3ccccc3F)n2C)s1

>  <assigned class>
false (0)

$$$$

Is it true that Emax reported for "COCc1c(C(=O)OCc2nc(=O)c3sccc3[nH]2)oc2ccccc12" is less than 80%? true (1)

Query "CN(C)/C(S)=N/c1cccc(C(F)(F)F)c1" next true (1)

Query COC(=O)C1=C(C)N=C(C)/C(=C(/O)OC)C1c1ccccc1OCc1c(C)no[n+]1[O-] (stereo not shown) next false (0)

Query CCOc1ccc(S(=O)(=O)NCCC(=O)NCC(c2cccs2)N2CCOCC2)cc1 (stereo not shown) next true (1)

Query COc1ccc(CN2CCNC(=O)C2CC(=O)NCCc2c[nH]c3ccccc23)c(OC)c1 (stereo not shown) next true (1)

Query "CN(C)C1(C/N=C/c2cc(Cl)cc([N+](=O)[O-])c2O)CCCCC1" next false (0)

Query "O=C(CSc1nnc(C2CC2)n1C1CC1)c1cccs1" next true (1)

Query "Cc1cc(C(=O)Nc2cccc3ccccc23)c(C)o1" next true (1)

Query "O=[N+]([O-])c1ccc(Cl)cc1N/N=C/c1ccncc1" next true (1)

Query "COc1ccc(S(=O)(=O)Nc2ccc(S(=O)(=O)Nc3nccs3)cc2)cc1" next false (0)

Query "O=C(Cn1cccc1C(=O)c1ccccc1)NCCCc1ccccc1" next false (0)

Query "CCCOc1nc(SCCC)nc2c1cnn2-c1ccccc1" next false (0)

====

System: β-galactosidase in CMV-LacZ C2C12 myotubes
protocol: CMV-LacZ secondary screen in C2C12 myotubes (β-Gal stabilizing assay)
Assay type: cell-based, mouse
settings: 5 uM; C2C12 CMV-LacZ myotubes; fold relative to DMSO
Friendly reminder: CMV-LACZ in Myotubes, signal relative to DMSO below 1 is YES, at or above is NO.

Is it true that CMV-LACZ in Myotubes, signal relative to DMSO reported for "COc1ccc(OC)c(NC(=O)CN2CCC(NC(=O)c3ccccc3C)CC2)c1" is less than 1? NO

Query "c1ccc(-c2cnc(-c3ccccc3)nc2)cc1" next YES

Query "O=C(Nc1ccccc1OC(=O)c1ccc(Cl)cc1)c1ccc(Cl)cc1" next NO

====

Test system: β-galactosidase in CMV-LacZ C2C12 myoblasts
protocol: CMV-LacZ secondary screen in C2C12 myoblasts (β-Gal stabilizing assay)
Assay type: cell-based, mouse
settings: 10 uM; CMV-LacZ C2C12 myoblasts
From the text: In order to determine compounds that acted to stabilize β-gal in myogenic cells, a CMV-LacZ C2C12 cell line was used in a secondary screen. The EGFP gene from the pEGFP (Clontech) vector was replaced by LACZ PCR product with digests of the vector/PCR product performed using EcoRI (NEB) and NotI (NEB) and ligated using T4 DNA Ligase (NEB) following standard procedures to produce the CMV-LACZ vector. […]
parameter: CMV-LACZ in Myoblasts (β-galactosidase activity relative to DMSO)

>  <line notation>
CC(C)(C)NC(=O)NC(=O)CN1CCN(Cc2ccccc2)CC1

>  <target system>
β-galactosidase in CMV-LacZ C2C12 myoblasts

>  <measured result>
1.0767

$$$$
>  <line notation>
COc1ccc(CCNC(=O)Cn2nnc(C(=O)Nc3ccc(Br)cc3)c2N)cc1OC

>  <target system>
β-galactosidase in CMV-LacZ C2C12 myoblasts

>  <measured result>
1.0462

$$$$
>  <line notation>
O=C(CCc1ccccc1)c1nnc(-c2ccccc2)o1

>  <target system>
β-galactosidase in CMV-LacZ C2C12 myoblasts

>  <measured result>
0.9011

$$$$

Now look at this one.
Field request: CMV-LACZ in Myoblasts (β-galactosidase activity relative to DMSO) | item: "Cc1cccc2c(N=Nc3ccc(S(=O)(=O)Nc4ccc(Cl)cc4)cc3[N+](=O)[O-])c(O)[nH]c12" 1.0198

====

Tested on: β-galactosidase in CMV-LacZ C2C12 myotubes
protocol: CMV-LacZ secondary screen in C2C12 myotubes (β-Gal stabilizing assay)
Format: cell-based, mouse
settings: 20 uM; CMV-LacZ C2C12 myotubes; 96-well format
parameter: CMV-LACZ in Myotubes (β-galactosidase activity relative to DMSO)
// response body must contain only the number

Take a look at these entries with their results.
>  <compound>
CSc1ncccc1C(=O)OCC(=O)c1cc(C)n(C)c1C

>  <measured result>
1.009

$$$$
>  <compound>
COCCn1c(=N)c(S(=O)(=O)c2ccc(Br)cc2)cc2c(=O)n3ccccc3nc21

>  <measured result>
0.9823

$$$$
>  <compound>
C/C(=N\Nc1nncc2ccccc12)c1cccc(OC(F)F)c1

>  <measured result>
0.9158

$$$$
>  <compound>
Cc1ccc(NC(=O)CC2COc3ccccc3O2)cc1 (centres unmarked)

>  <measured result>
0.9547

$$$$
>  <compound>
O=c1[nH]c(C2CCCN(S(=O)(=O)c3ccccc3)C2)nc2c1nnn2Cc1cccc(Cl)c1 (centres unmarked)

>  <measured result>
0.3991

$$$$
>  <compound>
Cc1ccc(-c2onc3ccc(C(=O)/C=C/N(C)C)cc23)cc1

>  <measured result>
0.7796

$$$$
>  <compound>
COc1ccc(-n2c(SCC(=O)Nc3cccc(C(=O)O)c3)nnc2-c2ccco2)cc1

>  <measured result>
0.9254

$$$$

Now look at this one.
Report CMV-LACZ in Myotubes (β-galactosidase activity relative to DMSO) for "O=C(c1ccc(Cl)c(S(=O)(=O)N2CCCCC2)c1)N1CCN(Cc2ccccc2)CC1" tested on β-galactosidase in CMV-LacZ C2C12 myotubes. 0.9373

====

System: α7 integrin (LacZ reporter in α7βgal+/− myoblasts)
protocol: Myoblast α7+/LacZ integrin FDG assay (Burkin assay in myoblasts, 96-well)
Format: cell-based, mouse
settings: Mus musculus, Myoblast, 48 h; 20 uM; α7+/LacZ myoblasts, 96-well; read-out: Burkin Assay in Myoblasts, value relative to DMSO
# if value of fold induction at 20 µM reaches 1, tag T; if it stays below, tag F

Decide: fold induction at 20 µM of CCS(=O)(=O)N1CCN(c2ccc([N+](=O)[O-])c(NCC3CCCO3)c2)CC1 (stereo not shown) >= 1? F
